Data origin, for the record: patent US8063064B2

property.measured: melting point

Output measured melting point for this item: "CN1CCc2c(Cc3ccc(Br)c(Oc4cc(Cl)cc(C#N)c4)c3F)n[nH]c2C1=O"
235.5 to 237.1 °C

Output measured melting point for this item: "N#Cc1cc(Cl)cc(Oc2c(Br)ccc(Cc3n[nH]c4c([N+](=O)[O-])cccc34)c2F)c1"
214.2 to 216 °C

Output measured melting point for this item: "N#Cc1cc(Cl)cc(Oc2c(Br)ccc(Cc3n[nH]c4ncccc34)c2F)c1"
242 to 243 °C

Output measured melting point for this item: "N#Cc1cc(Oc2c(Br)ccc(Cc3n[nH]c4ncccc34)c2F)cc(C(F)F)c1"
192 to 194.4 °C

Output measured melting point for this item: "N#Cc1cc(Cl)cc(Oc2c(Cl)ccc(Cc3cc(-c4ccccc4)[nH]n3)c2F)c1"
148 to 150.1 °C

Output measured melting point for this item: "Cn1nc(Cc2ccc(Br)c(Oc3cc(Cl)cc(C#N)c3)c2F)c2cccnc21"
138.6 to 142.6 °C

Output measured melting point for this item: "CS(=O)(=O)c1ccc(Cc2n[nH]c3nnccc23)c(F)c1Oc1cc(Cl)cc(C#N)c1"
239.5 to 240.7 °C

Output measured melting point for this item: "N#Cc1cc(Oc2c(Br)ccc(Cc3cc(-c4ccccc4)[nH]n3)c2F)cc(C(F)F)c1"
78.3 to 90.1 °C

Output measured melting point for this item: "N#Cc1cc(Cl)cc(Oc2c(Br)ccc(Cc3n[nH]c4nc(Cl)ncc34)c2F)c1"
216 to 217.9 °C

Output measured melting point for this item: "N#Cc1cc(Cl)cc(Oc2c(Br)ccc(Cc3n[nH]c4nccnc34)c2F)c1"
204 to 205 °C

Output measured melting point for this item: "N#Cc1cc(Cl)cc(Oc2c(C3CC3)ccc(Cc3n[nH]c4ncccc34)c2F)c1"
215 to 216.8 °C

Output measured melting point for this item: "N#Cc1cc(Cl)cc(Oc2c(C(F)F)ccc(Cc3n[nH]c4nnccc34)c2F)c1"
177.5 to 178.2 °C

Output measured melting point for this item: "COc1ccc(Cc2n[nH]c3ncccc23)c(F)c1Oc1cc(C#N)cc(C(F)F)c1"
197.9 to 201.9 °C

Output measured melting point for this item: "Cc1ccc(Cc2n[nH]c3ncccc23)c(F)c1Oc1cc(Cl)cc(C#N)c1"
215 to 218.8 °C

Output measured melting point for this item: "N#Cc1cc(Cl)cc(Oc2c(Br)ccc(Cc3n[nH]c4cnccc34)c2F)c1"
182 to 186.9 °C

Output measured melting point for this item: "N#Cc1cc(Cl)cc(Oc2c(Br)ccc(Cc3n[nH]c4ncc(F)cc34)c2F)c1"
206.5 to 209 °C

Output measured melting point for this item: "CCc1ccc(Cc2n[nH]c3ncccc23)c(F)c1Oc1cc(Cl)cc(C#N)c1"
205 to 206.9 °C

Output measured melting point for this item: "Cc1cc(C#N)cc(Oc2c(Cl)ccc(Cc3n[nH]c4nnccc34)c2F)c1"
200 to 202.9 °C

Output measured melting point for this item: "N#Cc1cc(C#N)cc(Oc2c(Cl)ccc(Cc3n[nH]c4nnccc34)c2F)c1"
222.8 to 224.7 °C

====

property.measured: melting point

Output measured melting point for this item: "N#Cc1cc(Cl)cc(Oc2c(Br)ccc(Cc3n[nH]c4c(N)cccc34)c2F)c1"
179.9 to 181.3 °C

Output measured melting point for this item: "N#Cc1cc(Cl)cc(Oc2c(Cl)ccc(Cc3n[nH]c4ncccc34)c2F)c1"
210 to 215.5 °C

Output measured melting point for this item: "COc1ccc2c(Cc3ccc(Br)c(Oc4cc(Cl)cc(C#N)c4)c3F)n[nH]c2n1"
223.8 to 225 °C

Output measured melting point for this item: "N#Cc1cc(Oc2c(Br)ccc(Cc3n[nH]c4cnccc34)c2F)cc(C(F)F)c1"
166 to 166.9 °C

Output measured melting point for this item: "N#Cc1cc(Cl)cc(Oc2c(Br)ccc(Cc3n[nH]c4c(C#N)cccc34)c2F)c1"
250 to 251.1 °C

====

Assign pIC50 to each entry below.
# target: HIV-1 RT (Human immunodeficiency virus type 1 group M subtype B, UniProt P03366)
# test.protocol: Homopolymer HIV Reverse Transcriptase Assay: Inhibitor IC50 Determination
# Format: biochemical
# experimental.conditions: purified recombinant enzyme, poly(rA)/oligo(dT)16 template-primer, 5 nM HIV-1 RT, 37° C. 30 min; TABLE 3
For clarity, pIC50 is expressed as the negative log10 of concentration in mol/L.

Output measured pIC50 for this item: "N#Cc1cc(Cl)cc(Oc2c(Cl)ccc(Cc3n[nH]c4ccccc34)c2F)c1"
7.28

Output measured pIC50 for this item: "N#Cc1cc(Oc2c(Br)ccc(Cc3cc(-c4ccccc4)[nH]n3)c2F)cc(C(F)F)c1"
7.26

====

# target: HIV-1 RT (Human immunodeficiency virus type 1 group M subtype B, UniProt P03366)
# test.protocol: Heteropolymer HIV Reverse Transcriptase Assay: Inhibitor IC50 Determination
# Type: biochemical
# experimental.conditions: purified recombinant enzyme, poly(rA)/oligo(dT)16 template-primer, 4 nM HIV-1 RT, 37° C. 30 min; TABLE 2
Assign IC50 to each entry below.
Give a bare numeral; the unit nM is implied.

Output measured IC50 for this item: N#Cc1cc(C#N)cc(Oc2c(Br)ccc(Cc3n[nH]c4ncccc34)c2F)c1 [Compound I-16]
3.3

Output measured IC50 for this item: N#Cc1cc(Oc2c(Cl)ccc(Cc3n[nH]c4ncccc34)c2F)cc(C(F)F)c1 [Compound I-28]
3.7

Output measured IC50 for this item: N#Cc1cc(Cl)cc(Oc2c(Cl)ccc(Cc3n[nH]c4nnccc34)c2F)c1 [Compound I-11]
1

Output measured IC50 for this item: N#Cc1cc(Cl)cc(Oc2c(Br)ccc(Cc3n[nH]c4ncccc34)c2F)c1 [Compound I-7]
7.6

====

Assign melting point to each entry below.

Output measured melting point for this item: "N#Cc1cc(Cl)cc(Oc2c(Br)ccc(Cc3n[nH]c4ncncc34)c2F)c1"
215 to 218 °C

Output measured melting point for this item: "N#Cc1cc(Oc2c(Cl)ccc(Cc3n[nH]c4ncccc34)c2F)cc(C(F)F)c1"
198 to 199 °C

Output measured melting point for this item: "N#Cc1cc(Cl)cc(Oc2c(Br)ccc(Cc3n[nH]c4ccncc34)c2F)c1"
216 to 218.5 °C

Output measured melting point for this item: "Cc1ccc(Cc2n[nH]c3ncccc23)c(F)c1Oc1cc(C#N)cc(C(F)F)c1"
212.5 to 214.4 °C

Output measured melting point for this item: "N#Cc1cc(C#N)cc(Oc2c(C3CC3)ccc(Cc3n[nH]c4ncccc34)c2F)c1"
221 to 223.6 °C

Output measured melting point for this item: "CS(=O)(=O)Nc1cccc2c(Cc3ccc(Br)c(Oc4cc(Cl)cc(C#N)c4)c3F)n[nH]c12"
234 to 236 °C

Output measured melting point for this item: "N#Cc1cc(C#N)cc(Oc2c(Br)ccc(Cc3n[nH]c4ncccc34)c2F)c1"
230 to 232.9 °C

Output measured melting point for this item: "N#Cc1cc(Cl)cc(Oc2c(Br)ccc(Cc3n[nH]c4nc(Cl)ccc34)c2F)c1"
212.3 to 214 °C

Output measured melting point for this item: "N#Cc1cc(Cl)cc(Oc2c(Cl)ccc(Cc3n[nH]c4ccccc34)c2F)c1"
163.3 to 163.7 °C

Output measured melting point for this item: "N#Cc1cc(Cl)cc(Oc2c(Br)ccc(Cc3n[nH]c4nnccc34)c2F)c1"
237.6 to 240.8 °C

====

# target: UniProt:P03366
# test.protocol: Heteropolymer HIV Reverse Transcriptase Assay: Inhibitor IC50 Determination
# Format: biochemical
# experimental.conditions: purified recombinant enzyme, poly(rA)/oligo(dT)16 template-primer, 4 nM HIV-1 RT, 37° C. 30 min; TABLE 2
# Protocol: HIV-1 RT assay was carried out in 96-well Millipore MultiScreen MADVNOB50 plates using purified recombinant enzyme and a poly(rA)/oligo(dT)16 template-primer in a total volume of 50 μL. […] Finally, the plates were dried and radioactivity counted in a Packard TopCounter after the addition of 25 μl scintillation fluid per well. IC50's were calculated by plotting % inhibition versus log10 inhibitor concentrations.
Structures can show the parent of a compound that is named as a salt.
property.measured: pIC50
For clarity, pIC50 is expressed as the negative log10 of concentration in mol/L.

Please respond with reported pIC50 (system UniProt:P03366) for N#Cc1cc(Oc2c(Br)ccc(Cc3n[nH]c4ccccc34)c2F)cc(C(F)F)c1 [Compound I-6] .
7.93

Please respond with reported pIC50 (system UniProt:P03366) for N#Cc1cc(Cl)cc(Oc2c(Br)ccc(Cc3n[nH]c4nc(Cl)ncc34)c2F)c1 [Compound I-13] .
8.07

Please respond with reported pIC50 (system UniProt:P03366) for Cn1c(=O)ccc2c(Cc3ccc(Br)c(Oc4cc(Cl)cc(C#N)c4)c3F)n[nH]c21 [Compound I-48, TFA salt] .
9.05
